# Assay details: Compound chemical stability in SGF without pepsin
# Format: physicochemical
# Run conditions: 60 minutes
Assay readout: % Remaining (%)

Compound	Unit abbreviation	% Remaining
COc1ccc(OC)c(CCN(Cc2cc(C)cc(Cl)c2)C(=O)OCc2oc(=O)oc2C)c1	%	109
COc1ccc(OC)c(CCN(Cc2cc(C)cc(Cl)c2)Cc2oc(=O)oc2C)c1	%	96
CCOC(=O)N(CCc1cc(OC)ccc1OC)Cc1cc(C)cc(Cl)c1	%	88
COc1ccc(OC)c(CCN(Cc2cc(C)cc(Cl)c2)C(=O)OC(C)OC(=O)C(C)(C)C)c1 (centres unmarked)	%	89
COc1ccc(OC)c(CCN(Cc2cc(C)cc(Cl)c2)C(=O)CN)c1	%	99
